- target.of.assay: peanut agglutinin (PNA) (Arachis hypogaea, UniProt P02872)
- Sequence (P02872 24-273): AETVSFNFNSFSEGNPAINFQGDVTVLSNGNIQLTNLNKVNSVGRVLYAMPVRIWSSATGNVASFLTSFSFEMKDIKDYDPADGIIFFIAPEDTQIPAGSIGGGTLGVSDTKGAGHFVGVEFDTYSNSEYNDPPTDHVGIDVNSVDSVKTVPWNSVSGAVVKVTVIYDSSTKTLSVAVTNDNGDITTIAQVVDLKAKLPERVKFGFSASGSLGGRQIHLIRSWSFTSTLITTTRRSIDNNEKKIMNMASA
- assay.procedure: isothermal titration calorimetry, one-site model
pKd: −log10 of the molar value.
metric.name: pKd

INSERT INTO measurements (molecule, metric_name, quantitative_result) VALUES
  ('[N-]=[N+]=Nc1c(F)c(F)c(C(=O)NCCOCCOCCS[C@@H]2O[C@H](CO)[C@@H](O[C@@H]3O[C@H](CO)[C@H](O)[C@H](O)[C@H]3O)[C@H](O)[C@H]2O)c(F)c1F [compound 5]', 'pKd', 3.26);
